Value source: paper PMC7394244

assay: In vitro metabolism, mouse liver microsomes
Parameter measured: microsomal CLint at 1 μM (µL/min/mg)
Express your answer in µL/min/mg, writing the number without its unit.

Lookup: Please list microsomal CLint at 1 μM recorded for the compound `Cc1cc(Nc2ccc(S(F)(F)(F)(F)F)cc2)n2nc(C(C)(F)F)nc2n1`
Found: 8

---

test: in vivo; conditions: male, Swiss outbred, mouse, plasma, iv
Parameter measured: clearance at 24 h (mL/min/kg)
A number alone suffices; assume mL/min/kg.

Lookup: Give reported clearance at 24 h value for `Cc1c(Cc2ccc(C(F)(F)F)nc2)c[nH]c1C(=O)NC1CC1`
Found: 26.1

---

test: Blood exposure in P. falciparum-infected SCID mice; format: in vivo; settings: NOD-scidIL2Rγnull, mouse, whole blood, po, 10 mg/kg
Parameter measured: AUC(0-t) (ng·h/mL)
Give the quantity in ng·h/mL, number only.

Lookup: Give recorded AUC(0-t). Cc1c(Cc2ccc(C(F)(F)F)nc2)c[nH]c1C(=O)NC1CC1 [Compound 37]
Found: 680
